B1: Azoarcus group I ribozyme (parent)
chain: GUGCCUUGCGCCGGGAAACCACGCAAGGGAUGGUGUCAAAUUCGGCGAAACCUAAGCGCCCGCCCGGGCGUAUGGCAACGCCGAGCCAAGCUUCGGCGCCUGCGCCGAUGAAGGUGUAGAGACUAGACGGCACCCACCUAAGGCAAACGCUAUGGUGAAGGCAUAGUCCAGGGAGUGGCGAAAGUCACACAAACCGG

- Variants of: B1
- Method description: reverse-splicing fitness (ratio to wild type); higher = more active; in vitro selection; Mg2+ level not given
Value type: reverse-splicing fitness
One number for each entry.

Illustrative cases are given below, each with its answer.
C82G A111U A145U C150G C169A U176C	0.0124
A120U A145U C169A U176C	0.00507
C82A A111C A120G A145U C150G C169G U176C	0.00484
A111C A120C A145U C150U C169G U176G	0.00667

Value sought for every listed variant: reverse-splicing fitness.
1. C82A A111C A120U A145U C150U U176A
2. A111C C150A C169G U176C
3. C82G A111C A120G A145G C150U C169A U176A
4. C82G A111G A145C C150G C169A U176C
5. C82A A120G A145G C150G C169A U176C
6. C82G A111C A120U C150A C169A U176C
7. A111U A120G A145U C150A C169U
8. A120U A145G C150G C169A U176A

// result
[0.00713, 0.0246, 0.0152, 0.0105, 0.0128, 0.00453, 0.0181, 0.0107]

Please state reverse-splicing fitness for every variant in the list that follows.
1. A111U C150A C169G U176G
2. C82G A111U A120C C150A U176A
3. A111U A120G A145U C169G

// result
1: 0.00571; 2: 0.0138; 3: 0.213

Taken from the RNAGym collection of RNA variant scans (doi:10.1093/molbev/msab373).
